These entries and their values trace back to patent US6914045B2.

test system: Staphylococcus sp.; test: in vitro antibacterial evaluation, MIC by broth dilution; type: cell-based; conditions: broth dilution, 18 hours at 35° C.
Numbered stars: 1 amine (or outer) side, 2 acyl side, 3 side chain; on linkers, the order of the positions; unused ones are H or OH. Square brackets hold non-standard residues; d marks the D form. Peptide text beside a SMILES is read from it. ξ: configuration not given here. X3 = CC1(C)OCC2OC(N3C(=N)NCC3C(O)C(N[*:1])C(=O)[*:2])C3OC(C)(C)OC3C2O1; ξEnduracididine(βξ-OH,4'ξ) = N=C1NCC(C(O)C(N)C(=O)O)N1; ξPhe(βξ-Me) = CC(c1ccccc1)C(N)C(=O)O
measuredMetric: MIC Coagulase Negative Staphylococcus (GC 4547) (mg/L)

# molecule, qualifyingSign, measurement
records = [
    ("CC(c1ccccc1)C1NC(=O)CNC(=O)C(CO)NC(=O)C(C(O)C2CNC(=N)N2C2OC(CO)C(O)C(O)C2O)NC(=O)C(C(O)C2CNC(=N)N2)NC(=O)C(Cc2ccc(OC3OC(CO)C(OC4OC(COC(=O)CCC5CCCC5)C(O)C(O)C4O)C(O)C3O)cc2)NC1=O (centres unmarked) [Example 100c]", "=", 1),
    ("CCCCCCCN1CC(C(O)C2NC(=O)C(C(O)C3CNC(=N)N3)NC(=O)C(Cc3ccc(OC4OC(CO)C(OC5OC6COC7(OC6C(O)C5O)C5CC6CC(C5)CC7C6)C(O)C4O)cc3)NC(=O)C(C(C)c3ccccc3)NC(=O)CNC(=O)C(CO)NC2=O)N(C2OC(CO)C(O)C(O)C2O)C1=N (centres unmarked)", "=", 2),
    ("CC(c1ccccc1)C1NC(=O)CNC(=O)C(CO)NC(=O)C(C(O)C2CNC(=N)N2C2OC(CO)C(O)C(O)C2O)NC(=O)C(C(O)C2CNC(=N)N2)NC(=O)C(Cc2ccc(OC3OC(COC(=O)CCC4CCCC4)C(OC4OC(CO)C(O)C(O)C4O)C(O)C3O)cc2)NC1=O (centres unmarked) [Example 100b]", "=", 1),
    ("CC(c1ccccc1)C1NC(=O)CNC(=O)C(CO)NC(=O)C(CC2CNC(=N)N2C2OC(CO)C(O)C(O)C2O)NC(=O)C(CC2CNC(=N)N2)NC(=O)C(Cc2ccc(OC3OC(CO)C(OC4OC(COCc5ccc(OCc6ccccc6)cc5)C(O)C(O)C4O)C(O)C3O)cc2)NC1=O (centres unmarked)", "=", 4),
    ("N=C1NCC(C(O)C2NC(=O)C(Cc3ccc(OC4OC(CO)C(OC5OC6COC7(OC6C6OC8(OC56)C5CC6CC(C5)CC8C6)C5CC6CC(C5)CC7C6)C(O)C4O)cc3)NC(=O)C(CC3CCCCC3)NC(=O)CNC(=O)C(CO)NC(=O)C(C(O)C3CNC(=N)N3C3OC(CO)C(O)C(O)C3O)NC2=O)N1 (centres unmarked) [Example 106b]", "=", 8),
    ("COc1ccc(COCC2OC(OC3C(CO)OC(Oc4ccc(CC5NC(=O)C(C(C)c6ccccc6)NC(=O)CNC(=O)C(CO)NC(=O)C(C(O)C6CNC(=N)N6C6OC(CO)C(O)C(O)C6O)NC(=O)C(C(O)C6CNC(=N)N6)NC5=O)cc4)C(O)C3O)C(O)C(O)C2O)cc1 (centres unmarked)", "=", 2),
    ("CC(c1ccccc1)C1NC(=O)CNC(=O)C(CO)NC(=O)C(C(O)C2CN(Cc3ccc(C(F)(F)F)cc3)C(=N)N2C2OC(CO)C(O)C(O)C2O)NC(=O)C(C(O)C2CNC(=N)N2)NC(=O)C(Cc2ccc(OC3OC(CO)C(OC4OC5COC6(OC5C(O)C4O)C4CC5CC(C4)CC6C5)C(O)C3O)cc2)NC1=O (centres unmarked)", "=", 8),
    ("COc1ccc2cc(COC3C(OC4C(CO)OC(Oc5ccc(CC6NC(=O)C(C(C)c7ccccc7)NC(=O)CNC(=O)C(CO)NC(=O)C(C(O)C7CNC(=N)N7C7OC(CO)C(O)C(O)C7O)NC(=O)C(C(O)C7CNC(=N)N7)NC6=O)cc5)C(O)C4O)OC(CO)C(O)C3O)ccc2c1 (centres unmarked) [Example 230c]", "=", 64),
    ("CCCCCCC(=O)OCC1OC(OC2C(CO)OC(Oc3ccc(CC4NC(=O)C(C(C)c5ccccc5)NC(=O)CNC(=O)C(CO)NC(=O)C(C(O)C5CNC(=N)N5C5OC(CO)C(O)C(O)C5O)NC(=O)C(C(O)C5CNC(=N)N5)NC4=O)cc3)C(O)C2O)C(O)C(O)C1O (centres unmarked) [Example 97b]", "=", 1),
    ("CC(c1ccccc1)C1NC(=O)CNC(=O)C(CO)NC(=O)C(C(O)C2CNC(=N)N2C2OC3COC(C)(C)OC3C3OC(C)(C)OC32)NC(=O)C(C(O)C2CNC(=N)N2)NC(=O)C(Cc2ccc(O)cc2)NC1=O (stereo not drawn) [Example 247] (cyclo(G[ξPhe(βξ-Me)]Y[ξEnduracididine(βξ-OH,4'ξ)][X3]S); configuration not given here)", ">", 64),
    ("CC(C)CC(=O)OC1C(OC2C(CO)OC(Oc3ccc(CC4NC(=O)C(C(C)c5ccccc5)NC(=O)CNC(=O)C(CO)NC(=O)C(CC5CNC(=N)N5C5OC(CO)C(O)C(O)C5O)NC(=O)C(CC5CNC(=N)N5)NC4=O)cc3)C(O)C2O)OC(CO)C(O)C1O (centres unmarked) [Example 277b]", ">", 64),
    ("COc1ccc(COCC2OC(OC3C(CO)OC(Oc4ccc(CC5NC(=O)C(C(C)c6ccccc6)NC(=O)CNC(=O)C(CO)NC(=O)C(C(O)C6CNC(=N)N6C6OC(CO)C(O)C(O)C6O)NC(=O)C(C(O)C6CNC(=N)N6)NC5=O)cc4)C(O)C3O)C(O)C(O)C2O)cc1OCc1ccccc1 (centres unmarked)", "=", 2),
]
